These measurements were taken from paper PMC4552634.

As shown below, each of these molecules has a reported % Control luminiscence value.
Test system: luciferase reaction (BacTiter-Glo)
Assay: Interference assay (inhibition of the BacTiter-Glo luciferase reaction)
Assay type: biochemical
Design: concentration or dose not given beside the values
Details: ATP interference assay
Measure: % Control luminiscence (%)

Smiles Str	Measure	Measured Value
COc1ccc(CCNCCCCNCCc2ccc(OC)c3ccccc23)c2ccccc12	% Control luminiscence	95
CCc1c(CCNCCCCCCNCCc2ccc([N+](=O)[O-])cc2)ccc(OC)c1OC	% Control luminiscence	100
COc1ccc(-c2cc(-c3ccc(S(C)(=O)=O)cc3)cnc2N)cn1	% Control luminiscence	100
FC(F)c1nc2ccccc2n1-c1nc(N2CCOCC2)nc(N2CCOCC2)n1	% Control luminiscence	98
